Attribute: Population Healthy Nuclei (%)
# Tested on: Fibroblast
# Experimental details: Multiplex assay against human fibroblast
# Type: toxicity, cell-based
# Test conditions: 12 h, 1 µM, compound concentration 1 uM, replicate 1
Response body: numeric value in %, unit text excluded.

# example entries with known answers
Compound: COc1cc2ncnc(Nc3ccc(F)c(Cl)c3)c2cc1NC(=O)/C=C/CN1CCCCC1 [DACOMITINIB ANHYDROUS]
Reported: 52

Compound: CN1CCC(=C2c3ccccc3CC(=O)c3sccc32)CC1.O=C(O)/C=C/C(=O)O [KETOTIFEN FUMARATE]
Reported: 41

Compound: CN1CCN(C(=O)C(C)(C)c2ccc(C(=O)Nc3cn4cc(-c5cc(C(C)(C)C)cc(C(C)(C)C)c5)ccc4n3)cc2)CC1
Reported: 52

Compound: CN1C2CCC1CC(OC(c1ccc(F)cc1)c1ccc(F)cc1)C2.Cl (stereo not given)
Reported: 45

# returns recorded Population Healthy Nuclei (%) (system: Fibroblast) for Cc1cn(-c2cc(NC(=O)c3ccc(C)c(Nc4nccc(-c5cccnc5)n4)c3)cc(C(F)(F)F)c2)cn1
29

* * *

# Test system: U2OS
# Experimental details: Multiplex assay against U2OS
# Assay type: toxicity, cell-based
# Test conditions: human, 24 h, 10 µM, compound concentration 10 uM, replicate 1
Collected Population Fragmented Nuclei (%) values appear next to each entry.
// note: answer is a bare numeric in %

Example entries and their recorded answers appear below.
Entry smiles: CNc1cc(Oc2cc(C(=O)Nc3cc(N4CCN(C)CC4)cc(C(F)(F)F)c3)ccc2C)ncn1
Reported: 47
--
Entry smiles: CNC(=O)c1ccc(Nc2nc(OC3CCCC3)c3c(-c4ccc5nc(C)oc5c4)c[nH]c3n2)c(OC)c1
Reported: 6
--
Entry smiles: CCn1cc(-c2ccnc3[nH]c(-c4cccc(CN(C)C)c4)cc23)c(-c2ccc(NC(=O)N(C)C)cc2)n1
Reported: 13
--
Entry smiles: NC(=O)c1cccc(-c2cc(Nc3ccc(OC(F)(F)F)cc3)ncn2)c1
Reported: 6
--
Entry smiles: COc1ccc(S(=O)(=O)N(CCO)c2ccccc2CN(C)C/C=C/c2ccc(Cl)cc2)cc1.O=P(O)(O)O
Reported: 5

Could you tell me which Population Fragmented Nuclei (%) is on file for CCOc1cc(C(=O)N2CCC(N3CCN(C)CC3)CC2)ccc1Nc1ncc2c(n1)N(C1CCCC1)c1ccccc1C(=O)N2C ?
23

What value of measured Population Fragmented Nuclei (%) is listed for CCN1CCN(c2ccc(Nc3cc(N(C)C(=O)Nc4c(Cl)c(OC)cc(OC)c4Cl)ncn3)cc2)CC1 ?
5

Name the recorded Population Fragmented Nuclei (%) for C=C1/C(=C\C=C2/CCC[C@]3(C)[C@@H]([C@H](C)/C=C/[C@H](C)C(C)C)CC[C@@H]23)C[C@@H](O)C[C@@H]1O .
43

* * *

# System: Fibroblast
# Experimental details: Multiplex assay against human fibroblast
# Assay type: toxicity, cell-based
# Test conditions: 48 h, 10 µM, compound concentration 10 uM, replicate 2
Listed molecules paired with reported Total Cell Count
# answer = number (no unit)

Look over these answered cases.
Molecule: C=C1/C(=C\C=C2/CCC[C@]3(C)[C@@H]([C@H](C)/C=C/[C@H](C)C(C)C)CC[C@@H]23)C[C@@H](O)C[C@@H]1O
Reported: 128

Molecule: CN1CCC(=C2c3ccccc3CC(=O)c3sccc32)CC1.O=C(O)/C=C/C(=O)O [KETOTIFEN FUMARATE]
Reported: 176

Molecule: Cl.Oc1ccc2c3c1O[C@H]1c4[nH]c5c(c4C[C@@]4(O)[C@@H](C2)N(CC2CC2)CC[C@]314)C[C@@]1(O)[C@H]2Cc3ccc(O)c4c3[C@@]1(CCN2CC1CC1)[C@H]5O4
Reported: 94

Molecule: CN1CCN(C(=O)C(C)(C)c2ccc(C(=O)Nc3cn4cc(-c5ccncc5)ccc4n3)cc2)CC1
Reported: 95

Molecule: CN1C2CCC1CC(OC(c1ccc(F)cc1)c1ccc(F)cc1)C2.Cl (stereo not drawn)
Reported: 259

Using the record for O=C(Nc1ccc(Cl)cc1)Nc1cccc(-c2cccc(N3CCCC3)n2)c1 , report its Total Cell Count.
325

Returns the measured Total Cell Count for the input molecule. Input: Cl.O=c1c2cccn2c2ccccc2n1CCCN1CCC(c2ccc(Cl)cc2)CC1
281
